System: T-cell
Assay: CD25 cell surface staining on T-cells stimulated with anti-CD3 antibody alone (Biological Example 2)
Type: cell-based
Details: 1 μM compound, primary human total T-cells, baseline = anti-CD3/anti-CD28 stimulated cells without inhibitor, read-out: CD25 staining, Anti-CD3 stimulation, fold change over baseline
metric: fold induction at 1 µM

Below, 5 compounds whose answers are already recorded.
// fold induction at 1 µM lookup, compound = CC(c1cc2c(c(C(F)(F)F)c1)CN(c1cccc(C3(Cc4nncn4C)COC3)c1)C2=O)N1CC(S(C)(=O)=O)C1 (stereo not shown) , result: 0.601 to 0.8

// fold induction at 1 µM lookup, compound = C[C@H](c1cc2c(c(C(F)(F)F)c1)CN(c1cccc(C3(Cc4nncn4C)COC3)c1)C2=O)N1CCC(C)(F)CC1 [Example 553b] , result: > 1

// fold induction at 1 µM lookup, compound = Cn1cnnc1[C@H](F)[C@](C)(F)c1cccc(N2Cc3c(cc(C4CC4)cc3C(F)(F)F)C2=O)c1 [Compound 481a] , result: 0.801 to 1

// fold induction at 1 µM lookup, compound = Cc1c[nH]nc1-c1cc2c(c(C(F)(F)F)c1)CN(c1cccc([C@H](C)Cc3nncn3C)c1)C2=O , result: 0.601 to 0.8

// fold induction at 1 µM lookup, compound = Cn1cnnc1[C@@H]1C[C@@H]1c1cccc(N2Cc3c(cc(C#N)cc3C(F)(F)F)C2=O)c1 , result: 0.601 to 0.8

New cases:
// fold induction at 1 µM lookup, compound = Cn1cnnc1C(F)(F)[C@](C)(F)c1cccc(N2Cc3c(cc(CN4CC[C@H](F)C4)cc3C(F)(F)F)C2=O)c1 , result: > 1

// fold induction at 1 µM lookup, compound = Cn1cnnc1CC1(c2cccc(N3Cc4c(cc(CN5CC[C@@H](C#N)C5)cc4C(F)(F)F)C3=O)c2)COC1 , result: > 1

Data provenance is patent US20220324835A1.
